- assay-system: pooled human IgG (human IgG1,2,3 and 4)
result-type: Enzyme Activity Endpoint Assay: Fc (ng/µL)

- protein: "PRT-90 (protein) MANQEIRYSEETPYHVTSVWTKGVTPPAKFTQGEDVFHAPYVANQGWYDITKTFNGKDDLLCGAATAGNMLHWWFDQNKEKIEAYLKKHPEKQKIMFGDQELLDVRKVINTKDDQTNSELFNYFRDKAFPGLSARRLGVMPDLVLDMFINGYYLNVYKTQTTDVNRTYQEKDRRGGIFDAVFTRGDQSKLLTSRHDFKEKTLKEISDLIKKELTEGKALGLSHTYANVRINHVINLWGADFDSNGNLKAIYVTDSDSNASIGMKKYFVGVNSAGKVAISAKEIKEDNIGAQVLGLFTLSTGQDIWNQTN"
  display-unit: "ng/µL"
  result-number: 106
